System: HT29 cell line
measurement-notes: Cancer cell growth inhibition, SRB dye assay (single agents and 50:50 IC50 mixtures)
Type: cell-based, human
experimental-conditions: Homo sapiens, HT-29, 144 h, single agent, Example 2
pIC50: −log10 of the molar value.
measured-parameter: pIC50

{"columns": ["molecular-string", "pIC50"],
 "data": [
  ["COc1cccc2c1C(=O)c1c(O)c3c(c(O)c1C2=O)C[C@@](O)(C(=O)CO)C[C@@H]3O[C@H]1C[C@H](N)[C@H](O)[C@H](C)O1", 7.55]
]}

P: CC(=O)O[C@@]12CO[C@@H]1C[C@H](O)[C@@]1(C)C(=O)[C@H](O)C3=C(C)[C@@H](OC(=O)[C@H](O)[C@@H](NC(=O)OC(C)(C)C)c4ccccc4)C[C@@](O)([C@@H](OC(=O)c4ccccc4)[C@H]21)C3(C)C
Q: CC[C@]1(O)C[C@H]2CN(CCc3c([nH]c4ccccc34)[C@@](C(=O)OC)(c3cc4c(cc3OC)N(C=O)[C@H]3[C@@](O)(C(=O)OC)[C@H](OC(C)=O)[C@]5(CC)C=CCN6CC[C@]43[C@@H]65)C2)C1
Which entry shows the lesser value of pIC50 here, P or Q ? // return label of chosen record
Q

* * *

Test system: LNCap cell line
measurement-notes: Cancer cell growth inhibition, SRB dye assay (single agents and 50:50 IC50 mixtures)
Assay type: cell-based, human
experimental-conditions: Homo sapiens, 144 h, Example 3, value used to make up 50:50 IC50 mixtures, read-out: IC50 values used in assay
Method: Cancer cells were seeded the day before application of drug in triplicate or quadruplicate in 96-well plates, allowed to grow in the presence of drug for 6 days before cell growth relative to untreated control wells was determined with a dye assay. […] Data was collected using ELISA plate reader software—SOFTmax PRO3.1.2, then imported into EXCEL. The mean and SD of replicates were calculated as a % of control, after subtraction of the blank value (wells with no cells). […]
pIC50: −log10 of the molar value.
measured-parameter: pIC50

{"columns": ["compound", "pIC50"],
 "data": [
  ["C[C@@H]1CC[C@@]2(OC1)O[C@H]1C[C@H]3[C@@H]4CC=C5C[C@@H](O[C@@H]6O[C@H](CO)[C@@H](O[C@@H]7O[C@H](CO)[C@@H](O)[C@H](O)[C@H]7O)[C@H](O)[C@H]6O[C@@H]6O[C@@H](C)[C@H](O)[C@@H](O)[C@H]6O)CC[C@]5(C)[C@H]4CC[C@]3(C)[C@H]1[C@@H]2C [Deltonin, diosgenin Rha2, [Glc4], Glc]", 6.00],
  ["C[C@@H]1CC[C@@]2(OC1)O[C@H]1C[C@H]3[C@@H]4CC=C5C[C@@H](O[C@@H]6O[C@H](CO)[C@@H](O[C@@H]7O[C@@H](C)[C@H](O)[C@@H](O)[C@H]7O)[C@H](O)[C@H]6O[C@@H]6O[C@@H](C)[C@H](O)[C@@H](O)[C@H]6O)CC[C@]5(C)[C@H]4CC[C@]3(C)[C@H]1[C@@H]2C [Dioscin, diosgenin Rha2, [Rha4], Glc]", 6.00]
]}

I: CC(=O)O[C@@]12CO[C@@H]1C[C@H](O)[C@@]1(C)C(=O)[C@H](O)C3=C(C)[C@@H](OC(=O)[C@H](O)[C@@H](NC(=O)OC(C)(C)C)c4ccccc4)C[C@@](O)([C@@H](OC(=O)c4ccccc4)[C@H]21)C3(C)C [Docetaxel]
II: CC[C@]1(O)C[C@H]2CN(CCc3c([nH]c4ccccc34)[C@@](C(=O)OC)(c3cc4c(cc3OC)N(C=O)[C@H]3[C@@](O)(C(=O)OC)[C@H](OC(C)=O)[C@]5(CC)C=CCN6CC[C@]43[C@@H]65)C2)C1 [Vincristine]
III: COc1cccc2c1C(=O)c1c(O)c3c(c(O)c1C2=O)C[C@@](O)(C(=O)CO)C[C@@H]3O[C@H]1C[C@H](N)[C@H](O)[C@H](C)O1 [Doxorubicin]
// sort entries: pIC50, high to low Form field (ranking): labels in requested order.
I, II, III
(I: 10.52, II: 9.30, III: 8.40)
